Biological target: dopamine D2 receptor (Homo sapiens)
Sequence (P14416 whole entry): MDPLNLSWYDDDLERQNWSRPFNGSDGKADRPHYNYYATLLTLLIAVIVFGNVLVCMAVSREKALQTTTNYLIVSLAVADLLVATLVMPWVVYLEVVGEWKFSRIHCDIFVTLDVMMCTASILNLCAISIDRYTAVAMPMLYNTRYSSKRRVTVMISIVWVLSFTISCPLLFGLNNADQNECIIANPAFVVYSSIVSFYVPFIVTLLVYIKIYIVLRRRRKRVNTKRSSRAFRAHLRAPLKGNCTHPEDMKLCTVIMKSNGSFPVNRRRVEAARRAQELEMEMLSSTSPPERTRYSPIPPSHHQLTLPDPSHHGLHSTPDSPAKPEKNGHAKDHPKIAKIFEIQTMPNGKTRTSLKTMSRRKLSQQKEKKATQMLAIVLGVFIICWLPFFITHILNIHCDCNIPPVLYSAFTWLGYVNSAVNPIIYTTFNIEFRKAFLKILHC
Assay: Dopamine D2 receptor-binding assay ([3H]Spiperone displacement)
Conditions: inhibition of binding of 0.4 nM [3H]Spiperone, CHO-hD2L film product, room temperature 120 minutes; read-out: IC50 (affinity to D2 receptor)
Where a name gives a salt, the structure may show the parent alone.
Catalogue of IC50 values
Use nM as the unit, but write only the number.

The cases that follow already have their IC50 on record.
{"compound": "O=C1CCc2ccc(OCCCCN3CCN(c4noc5ccc(Cl)cc45)CC3)cc2N1 [I-2, hydrochloride]", "IC50 / nM": 56.8}
{"compound": "O=C1CCc2ccc(OCCCN3CCN(c4nsc5ccccc45)CC3)cc2N1 [III-2, hydrochloride]", "IC50 / nM": 76.8}

# ---- query compound ----
Data request: Field request: IC50 | item: O=C1CCc2ccc(OCCCCN3CCN(c4noc5ccc(Br)cc45)CC3)cc2N1 [I-11, hydrochloride]
Data returned: 77.8
